B1: PPP2R2B (parent)
chain: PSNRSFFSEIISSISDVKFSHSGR

- Variants of: B1
- Protocol details: protein stability index of a GFP-peptide fusion (GPS, HEK-293T) (PSI 1-6); higher = more stable;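 also: lentivirally expressed fusions sorted by FACS into six bins by GFP to DsRed ratio, PSI derived from sequencing read proportions per bin multiplied by bin number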
- Stated conditions: c terminus: a fixed tail appended
Assign protein stability index to each entry below.
Give bare numbers.

The examples below pair each entry with its known result.
mutation_name=V17G measured_result=2.53
mutation_name=G23H measured_result=2.27
mutation_name=S22G measured_result=2.57
mutation_name=I11P measured_result=3.57
mutation_name=P1Q measured_result=2.4
mutation_name=D16A measured_result=2.34
mutation_name=I11S measured_result=3.2
mutation_name=G23V measured_result=1.66

// batch mode: one protein stability index value per listed entry
1. F6N
2. F6L

Response:
1: 2.9; 2: 2.39

// batch mode: one protein stability index value per listed entry
1. S13C
2. E9G
3. S2G
4. D16R
5. N3M
6. I14L

Response:
[2.19, 2.64, 2.66, 2.15, 2.13, 2.54]

// batch mode: one protein stability index value per listed entry
1. K18G
2. N3K
3. S15N
4. I10P
5. H21S
6. G23C

Response:
2.66
2.12
2.77
3.44
1.93
2.36

// batch mode: one protein stability index value per listed entry
1. E9L
2. F7Q
3. S22K
4. S13W
5. G23M

Response:
[2.58, 3.64, 2.64, 2.34, 2.25]

// batch mode: one protein stability index value per listed entry
1. V17H
2. S2E
3. I14M
4. E9F
5. S2D
6. V17I
7. S22A
8. I14N

Response:
1. 3.21
2. 2.55
3. 2.6
4. 1.63
5. 2.85
6. 2.53
7. 2.4
8. 3.05

// batch mode: one protein stability index value per listed entry
1. S12I
2. P1F

Response:
1: 3.11; 2: 1.89

// batch mode: one protein stability index value per listed entry
1. S15P
2. S13K
3. G23F
4. F19H

Response:
1: 2.85; 2: 2.19; 3: 2.09; 4: 3.02

// batch mode: one protein stability index value per listed entry
1. D16M
2. I10Y
3. S20D
4. P1Y
5. I14V

Response:
2.02
3.01
2.88
2.95
2.81
